Tested on: HepG2.2.15 cells
Assay: Cytotoxicity on HepG2.2.15 cells (MTT assay, 9 days)
Assay type: cell-based, human
Conditions: HepG 2.2.15 cell
Parameter: TC50 (50% cytotoxicity concentration). Scope: all listed entries.

Task: Which value of TC50 (50% cytotoxicity concentration) has been reported for Nc1ccn([C@@H]2CS[C@H](CO)O2)c(=O)n1 [Compound 3TC, Lamivudine, reference compound] in the records?
Output: 517.40 µM

Task: Which value of TC50 (50% cytotoxicity concentration) has been reported for `CCOC(=O)CC/C(=N\OC)C(=O)c1ccc(C)cc1` in the records?
Output: >1500 µM

Task: Which value of TC50 (50% cytotoxicity concentration) has been reported for `CO/N=C(\CCC(=O)Nc1ccccc1)c1ccc(OC)cc1` in the records?
Output: 473.25 µM

Task: Which value of TC50 (50% cytotoxicity concentration) has been reported for `COc1ccc(/C(CCC(=O)OCc2ccco2)=N/OCc2ccccc2)cc1` in the records?
Output: 1153.49 µM

Task: Which value of TC50 (50% cytotoxicity concentration) has been reported for `CCOC(=O)CC/C(=N\OC)c1ccc(OC)cc1` in the records?
Output: 1383.74 µM

More entries:
Task: Which value of TC50 (50% cytotoxicity concentration) has been reported for `CO/N=C(\CCC(=O)OCc1ccco1)c1ccc(Cl)cc1` in the records?
Output: >1500 µM

Task: Which value of TC50 (50% cytotoxicity concentration) has been reported for `CCOC(=O)CC/C(=N\OC)c1ccc(Cl)cc1` in the records?
Output: 450.67 µM

Task: Which value of TC50 (50% cytotoxicity concentration) has been reported for `CO/N=C(\CCC(=O)OCc1ccco1)c1ccc(OC)cc1` in the records?
Output: 347.55 µM

###

Test system: secretion of HBsAg in HepG2.2.15 cells
Assay: microbe, parasite or virus in culture
Format: cell-based, Hepatitis B virus
Conditions: Hepatitis B virus, HepG2.2.15, 216 h, read-out: HBsAg IC50, HepG2.2.15 cells, 9 days, ELISA; - = inhibition ratio less than 50% in the test concentration range
Description: The anti-HBV activities of the compounds were expressed as the concentration of compound that achieved 50% inhibition (IC50) to the secretion of HBsAg and HBeAg. […] HepG2.2.15 cells were seeded at a density of 1 × 10^5 cells/ml ([…]) in 96-well plates and maintained at 37 °C for 24 h prior to extract addition, followed by treatment with various concentrations of drugs. […] The IC50 and selected index (SI) of each compound were calculated, respectively. […]
Parameter: pIC50. Scope: all listed entries.
Keep it numeric: pIC50 is minus log10 of the concentration in mol/L.

Task: Which value of pIC50 has been reported for Nc1ccn([C@@H]2CS[C@H](CO)O2)c(=O)n1 [Compound 3TC, Lamivudine, reference compound] in the records?
Output: 3.54

Now, please, on to the next compound.
Task: Which value of pIC50 has been reported for `CCOC(=O)CC/C(=N\OC)C(=O)c1ccc(C)cc1` in the records?
Output: 3.53

###

Tested on: secretion of HBsAg in HepG2.2.15 cells
Experiment: microbe, parasite or virus in culture
Assay type: cell-based, Hepatitis B virus
Details: Hepatitis B virus, HepG2.2.15, 216 h, read-out: HBsAg IC50, HepG2.2.15 cells, 9 days, ELISA; - = inhibition ratio less than 50% in the test concentration range
Measured parameter: pIC50
Keep it numeric: pIC50 is minus log10 of the concentration in mol/L.

Example molecules with recorded pIC50:
Task: Which value of pIC50 has been reported for CCOC(=O)CC/C(=N\OC)c1ccc(Cl)cc1 [Compound 3c-1] in the records?
Output: 3.65

Task: Which value of pIC50 has been reported for CO/N=C(\CCC(=O)OCc1ccco1)c1ccc(OC)cc1 [Compound 4b-1] in the records?
Output: 3.89

Task: Which value of pIC50 has been reported for CO/N=C(\CCC(=O)Nc1ccccc1)c1ccc(OC)cc1 [Compound 5b-1] in the records?
Output: 3.68

Now, please, on to the next molecule.
Task: Which value of pIC50 has been reported for COc1ccc(/C(CCC(=O)OCc2ccco2)=N/OCc2ccccc2)cc1 [Compound 4b-2] in the records?
Output: 3.63
